# protocol-details: rat plasma pharmacokinetics
# Format: in vivo
# condition-details: male, Long-Evans, rat, plasma, ip, 3 mg/kg
measured-property: AUC(0-inf) (ng·h/mL)

CCCCCn1c2ccccc2c2cc(C(=O)c3cccc4ccccc34)ccc21    168

---

# protocol-details: rat plasma pharmacokinetics
# Type: in vivo
# condition-details: male, Long-Evans, rat, plasma, ip, 3 mg/kg
measured-property: AUC(0-t) (ng·h/mL)

CCCCCn1c2ccccc2c2cc(C(=O)c3cccc4ccccc34)ccc21    154

---

# protocol-details: rat plasma pharmacokinetics
# Assay type: in vivo
# condition-details: male, Long-Evans, rat, plasma, ip, 3 mg/kg
measured-property: Cmax (µg/mL)

CCCCCn1c2ccccc2c2cc(C(=O)c3cccc4ccccc34)ccc21    0.026

---

# protocol-details: rat liver microsome incubation
# Assay type: in vitro ADME
# condition-details: Sprague-Dawley, rat, pooled rat liver microsomes, pH 7.4
measured-property: microsomal CLint at 1 μM (µL/min/mg)

CCCCCn1c2ccccc2c2cc(C(=O)c3cccc4ccccc34)ccc21 [EG-018]    160

---

# protocol-details: rat plasma pharmacokinetics
# Type: in vivo
# condition-details: male, Long-Evans, rat, plasma, ip, 3 mg/kg
measured-property: Tmax (h)

CCCCCn1c2ccccc2c2cc(C(=O)c3cccc4ccccc34)ccc21    2

---

# protocol-details: human liver microsome incubation
# Assay type: in vitro ADME
# condition-details: human, pooled human liver microsomes, pH 7.4
measured-property: microsomal CLint at 1 μM (µL/min/mg)

CCCCCn1c2ccccc2c2cc(C(=O)c3cccc4ccccc34)ccc21    340

---

# measured-on: hCB2 receptor (Homo sapiens)
# Sequence (P34972 whole entry): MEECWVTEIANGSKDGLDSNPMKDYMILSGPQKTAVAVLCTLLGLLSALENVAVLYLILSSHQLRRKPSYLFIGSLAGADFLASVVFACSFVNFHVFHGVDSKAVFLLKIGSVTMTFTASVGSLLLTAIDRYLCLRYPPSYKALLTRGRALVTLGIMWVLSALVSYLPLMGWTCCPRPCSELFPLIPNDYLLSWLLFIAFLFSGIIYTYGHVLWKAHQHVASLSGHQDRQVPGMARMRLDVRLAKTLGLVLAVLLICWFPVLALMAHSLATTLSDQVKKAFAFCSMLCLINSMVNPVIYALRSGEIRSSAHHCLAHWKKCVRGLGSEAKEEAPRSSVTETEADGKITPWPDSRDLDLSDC
# protocol-details: agonist-stimulated [35S]GTPγS binding, hCB2 HEK293 membranes
# Assay type: biochemical
measured-property: EC50 (nM)

CCCCCn1c2ccccc2c2cc(C(=O)c3cccc4ccccc34)ccc21 [EG-018]    11.3

---

# protocol-details: rat plasma pharmacokinetics
# Assay type: in vivo
# condition-details: male, Long-Evans, rat, plasma, ip, 3 mg/kg, Half life (h), rat plasma, 3 mg/kg i.p.
measured-property: half-life (h)

CCCCCn1c2ccccc2c2cc(C(=O)c3cccc4ccccc34)ccc21    2.5

---

# protocol-details: human liver microsome incubation
# Assay type: in vitro ADME
# condition-details: human, pooled human liver microsomes, pH 7.4
measured-property: half-life at 1 μM (min)

CCCCCn1c2ccccc2c2cc(C(=O)c3cccc4ccccc34)ccc21    2.04
